Where do these numbers come from? They come from patent US12491170B2.

Assay: Stability in liver microsomes, human
Measured Treprostinil Concentration 120 min values are reported for all entries that follow.
API: value field is a number in µM; no unit string.

{"COMPOUND": "CCCCCC(CCC1C(O)CC2Cc3c(cccc3OCC(=O)O)CC21)OC(C)=O (stereo not shown) [Prodrug XLIII]", "MEASURED RESULT": 0.341}
{"COMPOUND": "CCCCCC(CCC1C(O)CC2Cc3c(cccc3OCC(=O)O)CC21)OP(=O)(O)O (stereo not shown) [Prodrug VI]", "MEASURED RESULT": 0.061}
{"COMPOUND": "CCCCCC(CCC1C(OC(=O)CC)CC2Cc3c(cccc3OCC(=O)O)CC21)OC(=O)CC (stereo not shown) [Prodrug LXX, treprostinil dipropionate]", "MEASURED RESULT": 0.381}

// switching to the query compound
input: Need Treprostinil Concentration 120 min, item CCCCCC(CCC1C(O)CC2Cc3c(cccc3OCC(=O)O)CC21)OC(=O)CC (stereo not shown) [Prodrug LV]
output: 0.389

----------
Parameter: Treprostinil Concentration 30 min. Scope: all listed entries.
Test: Stability in human subcutaneous skin homogenate
Write the number in µM without appending the unit.

{"MOLECULE": "CCCCCC(CCC1C(OC(=O)CC)CC2Cc3c(cccc3OCC(=O)O)CC21)OC(=O)CC (stereo not shown) [Prodrug LXX, treprostinil dipropionate]", "Treprostinil Concentration 30 min [µM]": 0.0179}

input: Please give the measured Treprostinil Concentration 30 min for this molecule: CCCCCC(CCC1C(O)CC2Cc3c(cccc3OCC(=O)O)CC21)OC(=O)CC (stereo not shown) [Prodrug LV]
output: 0.545

input: Then CCCCCC(CCC1C(O)CC2Cc3c(cccc3OCC(=O)O)CC21)OC(C)=O (stereo not shown) [Prodrug XLIII] ?
output: 0.382

input: Okay, and CCCCCC(CCC1C(O)CC2Cc3c(cccc3OCC(=O)O)CC21)OP(=O)(O)O (stereo not shown) [Prodrug VI] ?
output: 0.6

----------
Test: Stability in liver microsomes, dog
Label 1 (yes) when Trep Concentration 10 min >= 0.2 µM; otherwise 0 (no).

Answered cases to consult:
{"COMPOUND": "CCCCCC(CCC1C(O)CC2Cc3c(cccc3OCC(=O)O)CC21)OC(=O)CC (centres unmarked)", "LABEL CLASS": "1 (yes)"}
{"COMPOUND": "CCCCCC(CCC1C(O)CC2Cc3c(cccc3OCC(=O)O)CC21)OP(=O)(O)O (centres unmarked)", "LABEL CLASS": "1 (yes)"}
{"COMPOUND": "CCCCCC(CCC1C(O)CC2Cc3c(cccc3OCC(=O)O)CC21)OC(=O)NCCO (centres unmarked)", "LABEL CLASS": "0 (no)"}
{"COMPOUND": "CCCCCC(CCC1C(O)CC2Cc3c(cccc3OCC(=O)O)CC21)OC(=O)c1ccc(C(F)(F)F)cc1 (centres unmarked)", "LABEL CLASS": "0 (no)"}

Let us examine a further case.
input: Please indicate if the recorded Trep Concentration 10 min for CCCCCC(CCC1C(O)CC2Cc3c(cccc3OCC(=O)O)CC21)OCCC (centres unmarked) meets or exceeds 0.2 µM.
output: 0 (no)

----------
Assay: Stability in cryopreserved hepatocytes, human
Settings: human
Method: Mixed-gender human cryopreserved hepatocytes, male Sprague-Dawley rat cryopreserved hepatocytes, and male Beagle dog cryopreserved hepatocytes were purchased from XenoTech. […] An aliquot of the supernatant was then diluted with water and analyzed by LC-MS/MS against calibration standards prepared in a matched matrix. […] All test article samples were analyzed for the dosed prodrugs as well as the drug, treprostinil. […]
Each record here notes measured AUC.
Return type: number; implicit unit µmol·min/L.

{"COMPOUND": "CCCCCC(CCC1C(O)CC2Cc3c(cccc3OCC(=O)O)CC21)Oc1ccccc1C(=O)O (centres unmarked) [LVI]", "UNITS": "µmol·min/L", "AUC": 0.00}

input: Need AUC, item CCCCCC(CCC1C(O)CC2Cc3c(cccc3OCC(=O)O)CC21)OC(=O)COc1ccc(O)cc1 (centres unmarked) [LIV]
output: 54.60

input: Could you do the same for CCCCCC(CCC1C(O)CC2Cc3c(cccc3OCC(=O)O)CC21)OC(=O)C1CCCN1 (centres unmarked) [XXXVI] , please?
output: 53.76

input: Note, next up: CCCCCC(CCC1C(O)CC2Cc3c(cccc3OCC(=O)O)CC21)OC(=O)NCCO (centres unmarked) [LIX]
output: 0.00

input: Also need CCCCCC(CCC1C(O)CC2Cc3c(cccc3OCC(=O)O)CC21)OC(=O)C(C)(C)C (centres unmarked) [XLIX] , thanks.
output: 23.78

input: Proceed to CCCCCC(CCC1C(O)CC2Cc3c(cccc3OCC(=O)O)CC21)OC(=O)COc1ccccc1 (centres unmarked) [LXV]
output: 52.16

input: Now give it for CCCCCC(CCC1C(O)CC2Cc3c(cccc3OCC(=O)O)CC21)OCC(=O)O (centres unmarked) [LVII] too.
output: 0.00

input: Same lookup for CCCCCC(CCC1C(O)CC2Cc3c(cccc3OCC(=O)O)CC21)OC(=O)c1ccc(C)cc1 (centres unmarked) [XLVIII] , please.
output: 37.91
